# Assay Summary: yeast transport mutant growth inhibition pilot in 384-well plates, post-Golgi transport modulator project (AID 636); also: test concentration not given here
# Experimental Parameters: absorbance 615 nm, about 18 h, hits give high values
# key: entry, value: inhibition
// note: answer is a bare numeric in %

Consider the reported inhibition for these molecules:
INSERT INTO measurements (molecule, parameter_measured, unit_label, assay_result) VALUES
  ('O=C(Nc1c(C(=O)NCc2ccco2)cnn1-c1ccccc1)c1ccc(F)cc1', 'inhibition', '%', -0.26),
  ('CS(=O)(=O)NCCSCc1c(F)cccc1Cl', 'inhibition', '%', 0.4),
  ('CCOC(=O)c1[nH]c(C)c(C(=O)Nc2ccc(Cl)cc2)c1C', 'inhibition', '%', 1.92),
  ('Cc1ccccc1-n1c(Cn2c(=O)sc3ccccc32)nnc1SCC(=O)N1CCCC1', 'inhibition', '%', -4),
  ('CCOC(=O)N1CCN(Cc2nc3c(c(=O)n(C)c(=O)n3C)n2Cc2ccccc2)CC1', 'inhibition', '%', -2.13),
  ('CC12CN3CC(C)(CN(C1)C3c1ccc(Cl)cc1Cl)C2=O (centres undefined)', 'inhibition', '%', -2.67);

Lookup result for Cc1ccc(C)c(N2CCN(C(=O)c3cc4ccccn4n3)CC2)c1 ; measured inhibition: -4.74

Notebook: COc1cccc(NC(=O)C2CCCN(S(=O)(=O)c3cccc4cccnc34)C2)c1 (centres undefined) , inhibition read as -5.73

Documented inhibition of CCN(CC)C(=O)c1ccc(CS(=O)(=O)c2ccc(OC)cc2)o1 : 1.54

Form field inhibition, entry Cc1cccc(OCC(=O)N2CCN(C(=O)Cc3ccccc3)CC2)c1 : -7.33

Reported inhibition for CCOc1ccc(N(CC(=O)Nc2ccc(C)c(C)c2)S(=O)(=O)c2c(C)noc2C)cc1 was -0.13

Noted for C(=N\n1cnnc1)/c1cccc(OCCOc2ccccc2)c1 : its inhibition reads -4.53

What the record says about CC1=C(C(=O)OC2CCCC2)C(c2ccc(C)o2)C2=C(CC(c3cccs3)CC2=O)N1 (centres undefined) : inhibition is -1.17

The reported value for CC(=O)Nc1ccc(N=Cc2ccc[nH]2)cc1 in terms of inhibition is 1.28

inhibition reading for COC(=O)COc1cccc(NC(=O)COc2ccccc2)c1 : -0.13

get_value(item= Cc1cc(C)c(NC(=O)Cn2cc3c(n2)CCCC3)c(C)c1 , readout=inhibition) returns -6
